TEST_TARGET: T1, human NGF (human, UniProt P01138 122-241)
T1 construct: also called human Nerve Growth Factor; hN
T1 chain: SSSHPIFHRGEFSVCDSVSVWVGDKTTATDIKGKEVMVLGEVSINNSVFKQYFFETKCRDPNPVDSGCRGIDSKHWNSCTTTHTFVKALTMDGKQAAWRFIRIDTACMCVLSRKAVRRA
ASSAY_PROCEDURE: SPR (Biacore T200), 100 nM mAb on NGF chip, similarity to parent mAb
REPORTED_PROPERTY: Percent Similarity Score (KD on hN) (%)
Numeric answer only, unit % assumed.

## Input State the recorded Percent Similarity Score (KD on hN) for this entry: can48L2VH_S53A (antibody, V domains shown, CDR scanning mutant of ZTS-842 (48L2)) VH: EVQLVESGGDLVKPGGSLRLSCVASGFTFSTYGINWVRQAPGKGLQWVAYISAGGSSTYYADPVKGRFTISRDDAKNMLYLQMNSLRAEDTAIYYCAGSRYTYAYGGGYEFHFWGQGTLVTVSS VL: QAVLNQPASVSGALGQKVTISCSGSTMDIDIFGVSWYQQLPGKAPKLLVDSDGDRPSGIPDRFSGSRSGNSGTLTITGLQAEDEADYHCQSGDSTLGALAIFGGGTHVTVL
## Output 100

## Input State the recorded Percent Similarity Score (KD on hN) for this entry: can48L2VL_G53A (antibody, V domains shown, CDR scanning mutant of ZTS-842 (48L2)) VH: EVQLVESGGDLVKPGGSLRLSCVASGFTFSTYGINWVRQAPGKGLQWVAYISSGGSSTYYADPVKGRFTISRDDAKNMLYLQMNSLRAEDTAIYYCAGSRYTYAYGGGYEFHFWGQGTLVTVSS VL: QAVLNQPASVSGALGQKVTISCSGSTMDIDIFGVSWYQQLPGKAPKLLVDSDADRPSGIPDRFSGSRSGNSGTLTITGLQAEDEADYHCQSGDSTLGALAIFGGGTHVTVL
## Output 100

## Input State the recorded Percent Similarity Score (KD on hN) for this entry: can48L2VL_I101A (antibody, V domains shown, CDR scanning mutant of ZTS-842 (48L2)) VH: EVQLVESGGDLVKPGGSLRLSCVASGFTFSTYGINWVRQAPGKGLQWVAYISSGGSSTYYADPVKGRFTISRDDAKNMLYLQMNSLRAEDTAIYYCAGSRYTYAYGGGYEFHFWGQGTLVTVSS VL: QAVLNQPASVSGALGQKVTISCSGSTMDIDIFGVSWYQQLPGKAPKLLVDSDGDRPSGIPDRFSGSRSGNSGTLTITGLQAEDEADYHCQSGDSTLGALAAFGGGTHVTVL
## Output 100

Values from patent US20210221899A1
